test system: anti-peptide S2-affinity purified antibodies; test: Synthetic peptide ELISA on maleimide-activated plates with anti-peptide S2-affinity purified antibodies; format: binding, swine; settings: synthetic peptides bound to MBS coated plates
Readout Type: recognition by S2 affinity purified antibodies in ELISA

Use these answered entries as a reference point.
>>> df
                            sequence_string        measurement
0  SGSGANNSSSSHFQSIYNC [peptide S2, GP5 residues 27-44 with residues 27-30 changed to SGSG]         recognized
1  SGSGANNSSSSGSGSIYNC [peptide S3, peptide S2 with motif SHF replaced by GSG]  did not recognize
2               ALVNIPISNNLAC [peptide R4N]  did not recognize
3  VLVNANNSSSSHFQSIYNC [peptide S1, residues 27 to 43 of GP5 of IA 97-7895, contains motifs VLVN and HXXXIYN]         recognized

Input VLVNSNNSSSSAC [peptide R1N, aminoacids 27-38 of the GP5 of PRRSV IA 97-7895 isolate] . Output recognition by S2 affinity purified antibodies in ELISA: did not recognize
